# protocolNotes: Biotin-PGE2 ELISA (PGE2-biotinamide binding to captured IgG)
# conditionSet: Biotin-PGE2 15 μM
Consider the following molecules and their measured Binding to PGE2-Biotinamide (OD450) readings.
The answer should be a number; do not append a unit.

Consider the reported Binding to PGE2-Biotinamide (OD450) for these molecules:
K3A: human anti-PGE2 antibody from PROfusion mRNA display; VH SEQ ID NO 13, VL SEQ ID NO 17 (antibody, V domains shown) VH: EVQLVQSGAETKKPGASVEVSCKASGYSFTEYGISWVRQAPGQGPEWMGCISPYNGKLHYAQEFQGRVTMTTGTSTNTAYMELGSLRSDDTAVYYCARGGFSFYDSSGYYYVTDHWGQGTLVTVSS VL: DIRLTQSPSSLSASVGDRVTITCRASQSIGSYLNWYQQKSGKAPKLLIYAASKLQSGVPSRFSGSGFGTDFTLTISSLQPEDSATYYCQQSDTTPFTFGQGTKLEIKR : 0.78
K7H: human anti-PGE2 antibody from PROfusion mRNA display; VH SEQ ID NO 21, VL SEQ ID NO 24 (antibody, V domains shown) VH: EVQLVQSGSELKKPGASVKVSCKASGYSFTEYGISWVRQAPGQGPEWMGCISPYNGKLHYAQKFLGRVTMTTDTSTNTAYMELRSLKSDDTAVYYCARGGFSSYDSSGYYYVTDHWGQGTLVTVSS VL: DIRLTQSPSSLPASVGDRVTITCRASQSISTYLNWYQQTPGKAPSLLIYAASSLQSGVPSRFSGSGSGTDFTLTISSLQPEDFATYYCQQSYSPPPTFGGGTKVEIKR : 0.29
K1B: human anti-PGE2 antibody from PROfusion mRNA display; VH SEQ ID NO 5, VL SEQ ID NO 9 (antibody, V domains shown) VH: EVQLVQSGAEVKRPGASVKVSCKTSGYTFTNYDINWVRLAPGQGLEWMGCMNPTTGKTGYAQKFQGRVTMTRDTTIATAYMELSRLTSEDTAVYYCARGRGYSPGYGVAYADYWGQGTLVTVSS VL: DIQLTQSPSSLPASVGDRVTITCRASQSISTYLNWYQQTPGKAPSLLIYAASSLQSGVPSRFSGSGSGTDFTLTISSLQPEDFATYYCQQSYSPPPTFGGGTKVEIKR : 0.82
L11: human anti-PGE2 antibody from PROfusion mRNA display; VH SEQ ID NO 25, VL SEQ ID NO 29 (antibody, V domains shown) VH: EVQLVQSGPELKKPGTSVKVSCKASGYTLTTYAMNWVRQAPGQGLEWMGWIDTSTGNPTYAPGFLGRFVFSLDTSLSTTYLQISSLKPDDTAVYYCARSSHTRPGDFWGQGTLVTVSS VL: QSGLTQPPSVSGTPGQRVTISCSGSESNVGTNSVNWYQQLPGAAPRLLIRGNSDRPSGVPDRFSASKSGTSASLAISRLQSEDEADYFCGACDGRLSGLYVFGTGTKVTVL : 0.07

Shifting focus to the molecule that follows.
Provide measured Binding to PGE2-Biotinamide (OD450) value, entry: L21: human anti-PGE2 antibody from PROfusion mRNA display; VH SEQ ID NO 33, VL SEQ ID NO 36 (antibody, V domains shown) VH: EVQLVQSGSELKKPGTSVKVSCKASGYTLTTYAMNWVRQAPGQGLEWMGWIGTSTGNPTYAQGFTGRFVFSLDTSVNTAHLQIYSLKAEDTALYYCARSSLTRPADYWGQGTLVTVSS VL: QSGLTQPPSVSGAPGQRVTISCFGSSSNIGAGYDVHWYQQLPGAAPKLLIFGNNNRPSGVPDRFSGSKSGTSASLAITGLQAEDEADYYCQSCDSSLSGAVFGTGTKVTVL
0.41
